Reported values of absorption maximum for individual entries
- TEST SUMMARY: solvent given as SMILES
- ASSAY SETUP: in CN(C)C=O

These solved cases illustrate the format of a correct answer.
- COMPOUND STRUCTURE STRING: "N#C/C(=C\\c1ccc(C#N)cc1)c1nc(-c2ccccc2)cs1"
  absorption maximum: "376 nm"
- COMPOUND STRUCTURE STRING: "CCN(CC)c1ccc2cc(/C=C(\\C#N)c3nc4ccccc4s3)c(=O)oc2c1"
  absorption maximum: "528 nm"
- COMPOUND STRUCTURE STRING: "O=C1OC(=O)c2cc(Oc3ccccc3)c3c4ccc5c6c(cc(Oc7ccccc7)c(c7ccc1c2c73)c64)C(=O)OC5=O"
  absorption maximum: "530 nm"
- COMPOUND STRUCTURE STRING: "COc1c2ccccc2c(-c2ccccc2)c2ccccc12"
  absorption maximum: "378 nm"
- COMPOUND STRUCTURE STRING: "CCC1=C(C)C2=C(C)c3c(C)c(-c4csc(N5CCOCC5)n4)c(C)n3[B-](F)(F)[N+]2=C1C"
  absorption maximum: "524 nm"
- COMPOUND STRUCTURE STRING: "O=C1OC(c2ccccc2)=N/C1=C\\c1ccc(N(c2ccc(/C=C3\\N=C(c4ccccc4)OC3=O)cc2)c2ccc(/C=C3/N=C(c4ccccc4)OC3=O)cc2)cc1"
  absorption maximum: "504 nm"
- COMPOUND STRUCTURE STRING: "CCn1c2ccccc2c2cc(-c3cc(-c4ccc5c(c4)c4ccccc4n5CC)ncn3)ccc21"
  absorption maximum: "363 nm"
- COMPOUND STRUCTURE STRING: "COC(=O)/C(C#N)=C/c1cn(-c2ccccc2)nc1-c1ccc([N+](=O)[O-])cc1"
  absorption maximum: "330 nm"
- COMPOUND STRUCTURE STRING: "CCn1c2ccccc2c2cc(/C=C/c3cc(/C=C/c4ccc5c(c4)c4ccccc4n5CC)nc(SC)n3)ccc21"
  absorption maximum: "413 nm"

Kindly consider the entry below.
Just so you know, measured absorption maximum for CC(C)(C)c1ccc(-c2c3ccccc3c3n2[B-](F)(F)[N+]2=Cc4c5ccccc5c(-c5ccc(C(C)(C)C)cc5)n4[B-](F)(F)[N+]2=C3)cc1 came out at 566 nm

###

Reported values of absorption maximum for individual entries
- TEST SUMMARY: solvent given as SMILES
- ASSAY SETUP: in C1CCCCC1
State just the number; it will be interpreted in nm.

Just so you know, measured absorption maximum for C/C(=C\c1ccc(C)cc1)c1nc2ccccc2o1 came out at 315

Just so you know, measured absorption maximum for c1ccc(-c2ccccc2)cc1 came out at 254.13

Just so you know, measured absorption maximum for F[B-]1(F)n2c(-c3ccccc3)cnc2-c2cccc[n+]21 came out at 412

Just so you know, measured absorption maximum for CCC1=C(C)C2=C(C)c3cccn3[B-](F)(F)[N+]2=C1C came out at 504

Just so you know, measured absorption maximum for Nc1ccc2c(c1)Cc1ccccc1-2 came out at 318

Just so you know, measured absorption maximum for Cc1cc(C)c(C)c(-c2ccc3cc(C)c(=O)oc3c2)c1C came out at 312

Just so you know, measured absorption maximum for CCC1=C(C)C2=C(C)c3cc(I)cn3[B-](F)(F)[N+]2=C1C came out at 517.5

Just so you know, measured absorption maximum for CCCCCCCC[Si](C)(C)c1cccc2ccccc12 came out at 294
